EXPERIMENTAL_TARGET: Angiotensin II receptor (Oryctolagus cuniculus)
METHOD_SUMMARY: Antagonistic effect against Angiotensin II receptor in rabbit aortic strip
Square brackets hold non-standard residues; d marks the D form. Peptide text beside a SMILES is read from it. Gly(cPent) = N[C@H](C(=O)O)C1CCCC1; Chg = N[C@H](C(=O)O)C1CCCCC1; Lac = C[C@H](O)C(=O)O; Sar = CNCC(=O)O
RESULT_TYPE: pA2

CNCC(=O)N[C@@H](CCCN=C(N)N)C(=O)N[C@H](C(=O)N[C@@H](Cc1ccc(O)cc1)C(=O)N[C@H](C(=O)N[C@@H](Cc1c[nH]cn1)C(=O)N1CCC[C@H]1C(=O)O[C@@H](C)C(=O)O)C1CCCCC1)C(C)C (H-[Sar]RVY[Chg]HP[Lac]-OH) : 11.29
CC[C@H](C)[C@H](NC(=O)[C@H](Cc1ccc(O)cc1)NC(=O)[C@@H](NC(=O)[C@H](CCCN=C(N)N)NC(=O)[C@H](C)O)C(C)C)C(=O)N[C@@H](Cc1c[nH]cn1)C(=O)N1CCC[C@H]1C(=O)O[C@@H](C)C(=O)O : 9.5
CNCC(=O)N[C@@H](CCCN=C(N)N)C(=O)N[C@H](C(=O)N[C@@H](Cc1ccc(O)cc1)C(=O)N[C@H](C(=O)N[C@@H](Cc1c[nH]cn1)C(=O)N1CCC[C@H]1C(=O)O[C@@H](C)C(=O)O)C1CCCC1)C(C)C (H-[Sar]RVY[Gly(cPent)]HP[Lac]-OH) : 11.09
